System: MDA-MB-231 xenografts
Assay: MDA-MB-231 xenografts in nude mice
Format: in vivo, BALB/nu/nu mice
Conditions: MDA-MB-231 xenograft nude mice, before dosing
property: Body weight (g) Pre-dose
Report the figure in g without appending any unit label.

>  <compound>
CCC1=CC2CN(C1)Cc1c([nH]c3ccccc13)C(C(=O)OC)(c1cc3c(cc1OC)N(C)C1C(O)(C(=O)NNC(=O)C4CCCN4C(=O)CNC(=O)OCc4ccccc4)C(O)C4(CC)C=CCN5CCC31C54)C2 (stereo not shown) [BX-CCRB, Z-GP-NHNH-Vinorelbine]

>  <Body weight (g) Pre-dose>
19.1

$$$$
>  <compound>
CC[C@]12C=CCN3CC[C@@]4(c5cc([C@@]6(C(=O)OC)C[C@@H]7C[C@@H](C(C)(F)F)CN(Cc8c6[nH]c6ccccc86)C7)c(OC)cc5N(C)[C@H]4[C@@](O)(C(=O)NN)[C@@H]1O)[C@@H]32 [JJ-CCFN, hydrazinolyzed vinflunine]

>  <Body weight (g) Pre-dose>
19.7

$$$$
>  <compound>
CCC1(O)CC2CN(CCc3c([nH]c4ccccc34)C(C(=O)OC)(c3cc4c(cc3OC)N(C)C3C(O)(C(=O)NNC(=O)C5CCCN5C(=O)CNC(=O)OCc5ccccc5)C(O)C5(CC)C=CCN6CCC43C65)C2)C1 (stereo not shown) [BX-CCJ, Z-GP-NHNH-Vinblastine]

>  <Body weight (g) Pre-dose>
19.8

$$$$
>  <compound>
CC[C@]1(O)C[C@@H]2CN(CCc3c([nH]c4ccccc34)[C@@](C(=O)OC)(c3cc4c(cc3OC)N(C)[C@H]3[C@@](O)(C(=O)OC)[C@H](OC(C)=O)[C@]5(CC)C=CCN6CC[C@]43[C@@H]65)C2)C1 [Vinblastine, reference compound]

>  <Body weight (g) Pre-dose>
20.7

$$$$
>  <compound>
CCC1(O)CC2CN(CCc3c([nH]c4ccccc34)C(C(=O)OC)(c3cc4c(cc3OC)N(C=O)C3C(O)(C(=O)NNC(=O)C5CCCN5C(=O)CNC(=O)OCc5ccccc5)C(O)C5(CC)C=CCN6CCC43C65)C2)C1 (stereo not shown) [BX-CCXJ, Z-GP-NHNH-Vincristine]

>  <Body weight (g) Pre-dose>
19.5

$$$$

The value of Body weight (g) Pre-dose recorded for CCC1=C[C@@H]2CN(C1)Cc1c([nH]c3ccccc13)[C@@](C(=O)OC)(c1cc3c(cc1OC)N(C)[C@H]1[C@@](O)(C(=O)NN)[C@H](O)[C@]4(CC)C=CCN5CC[C@]31[C@@H]54)C2 [JJ-CCRB, hydrazinolyzed vinorelbine] when tested on MDA-MB-231 xenografts reads 21.0

The compound CC[C@]1(O)C[C@@H]2CN(CCc3c([nH]c4ccccc34)[C@@](C(=O)OC)(c3cc4c(cc3OC)N[C@H]3[C@@](O)(C(=O)NN)[C@H](O)[C@]5(CC)C=CCN6CC[C@]43[C@@H]65)C2)C1 [JJ-CCXJ, hydrazinolyzed vincristine] , tested on MDA-MB-231 xenografts, showed Body weight (g) Pre-dose of 21.1

###

Body weight (g) Post-dose for assorted molecules
Test system: HepG2 xenografts
Assay: HepG2 xenografts in nude mice
Type: in vivo
Conditions: HepG2 xenograft nude mice, 1 mg/kg

Use these answered entries as a reference point.
>  <molecule>
CCC1(O)CC2CN(CCc3c([nH]c4ccccc34)C(C(=O)OC)(c3cc4c(cc3OC)N(C=O)C3C(O)(C(=O)NNC(=O)C5CCCN5C(=O)CNC(=O)OCc5ccccc5)C(O)C5(CC)C=CCN6CCC43C65)C2)C1 (stereo not drawn) [BX-CCXJ, Z-GP-NHNH-Vincristine]

>  <study system>
HepG2 xenografts

>  <value>
21.9 ± 2.1 g

$$$$
>  <molecule>
CCC12C=CCN3CCC4(c5cc(C6(C(=O)OC)CC7CC(C(C)(F)F)CN(Cc8c6[nH]c6ccccc86)C7)c(OC)cc5N(C)C4C(O)(C(=O)NNC(=O)C4CCCN4C(=O)CNC(=O)OCc4ccccc4)C1O)C32 (stereo not drawn) [BX-CCFN, Z-GP-NHNH-Vinflunine]

>  <study system>
HepG2 xenografts

>  <value>
22.1 ± 1.2 g

$$$$

Hey, HepG2 xenografts data for CCC1(O)CC2CN(CCc3c([nH]c4ccccc34)C(C(=O)OC)(c3cc4c(cc3OC)N(C)C3C(O)(C(=O)NNC(=O)C5CCCN5C(=O)CNC(=O)OCc5ccccc5)C(O)C5(CC)C=CCN6CCC43C65)C2)C1 (stereo not drawn) [BX-CCJ, Z-GP-NHNH-Vinblastine] : Body weight (g) Post-dose came out at 22.1 ± 1.3 g

The reported measurements were obtained from patent US10377774B2.
